- particulars: buffer; pH 7.4; 6.0 h; 150.0 µM
assay-metric: solubility kinetic (µg/mL)

molecule: CN1CCCN(C(c2ccccc2)c2ccc(Cl)cc2)CC1 (centres undefined)
assay-metric: solubility kinetic
units-text: µg/mL
value-operator: =
quantitative-readout: 36.9

molecule: CCc1ccccc1Nc1ncnc2c1cnn2-c1ccc(Cl)cc1
assay-metric: solubility kinetic
units-text: µg/mL
value-operator: <
quantitative-readout: 1

molecule: O=C(NCCc1cnc[nH]1)c1ccc(-c2ncc3cnc(-c4cccc(F)c4)cn23)cc1
assay-metric: solubility kinetic
units-text: µg/mL
value-operator: =
quantitative-readout: 33.7

molecule: CC[C@H](C)[C@@H]([C@@H](CC(=O)N1CCC[C@H]1[C@H](OC)[C@@H](C)C(=O)N[C@@H](Cc1ccccc1)c1nccs1)OC)N(C)C(=O)[C@@H](NC(=O)[C@H](C(C)C)N(C)C)C(C)C
assay-metric: solubility kinetic
units-text: µg/mL
value-operator: =
quantitative-readout: 65.7

molecule: Fc1cc(Nc2nc(-c3ccncc3)nc3ccccc23)ccc1-c1ccc(F)c(F)c1F
assay-metric: solubility kinetic
units-text: µg/mL
value-operator: <
quantitative-readout: 1

molecule: O=S(=O)(Nc1ccc(-c2ccccc2)cc1)c1ccc(NCc2cccc(Cl)c2O)cc1
assay-metric: solubility kinetic
units-text: µg/mL
value-operator: <
quantitative-readout: 1

molecule: Cc1cccc([C@H]2[C@@H]3C=CC[C@@H](C)[C@@H]3C(=O)N2Cc2ccccc2)c1
assay-metric: solubility kinetic
units-text: µg/mL
value-operator: <
quantitative-readout: 1

molecule: CN(C)c1ccc(-c2cc[nH]c(=O)c2N)cc1
assay-metric: solubility kinetic
units-text: µg/mL
value-operator: >
quantitative-readout: 34

molecule: Cc1noc(C)c1Cc1ccc(C(=O)N2CCc3c(nc4cc(-c5ccccc5)[nH]n4c3=O)C2)o1
assay-metric: solubility kinetic
units-text: µg/mL
value-operator: =
quantitative-readout: 4.77

====

- particulars: buffer; pH 7.4; 6.0 h; 150.0 µM
In this section we review reported solubility kinetic values for a set of molecules.

molecule: CNC(=O)c1nn(C)c2c1C(C)(C)Cc1cnc(Nc3ccc(N4CCN(C)CC4)cc3)nc1-2
value-operator: >
solubility kinetic [µg/mL]: 68
//
molecule: CCCCOc1ccc(C2c3c(oc4ccc(C)cc4c3=O)C(=O)N2CCCN(C)C)cc1OCC (stereo not given)
value-operator: =
solubility kinetic [µg/mL]: 58.5
//
molecule: O=C(NCCc1ccccn1)C1CC(=O)N(c2n[nH]c3cc(Br)ccc23)C1 (stereo not given)
value-operator: =
solubility kinetic [µg/mL]: 5.42
//
molecule: COc1ncc(-c2n[nH]c3c2CC(=O)N(c2ccccc2)C3)cn1
value-operator: =
solubility kinetic [µg/mL]: 5.46
//
molecule: CNc1oc(-c2cccc3ccccc23)nc1C#N
value-operator: <
solubility kinetic [µg/mL]: 1
//
molecule: NC(=O)C1CCN(c2nc(-c3cccc(Br)c3)cs2)CC1
value-operator: =
solubility kinetic [µg/mL]: 20.5
//
molecule: CC(=O)c1ccc(N2CCN(S(=O)(=O)c3ccc4c(c3)n(C)c(=O)n4C)CC2)cc1
value-operator: =
solubility kinetic [µg/mL]: 2.6
//
molecule: NC(=O)C1CCN(c2nc(-c3cccc(N)c3)cs2)CC1
value-operator: >
solubility kinetic [µg/mL]: 45
//
molecule: CCOC(=O)c1nnc(N[S+](=O)([O-])c2ccc(NC(=O)Cc3ccc(Cl)c(Cl)c3)cc2)s1
value-operator: >
solubility kinetic [µg/mL]: 76
//
molecule: CCCSc1nc(N[C@@H]2C[C@H]2c2ccc(F)c(F)c2)c2nnn([C@@H]3C[C@H](OCCO)[C@@H](O)[C@H]3O)c2n1
value-operator: <
solubility kinetic [µg/mL]: 1
